assay: Neurotoxicity screening (rotarod test); format: in vivo; conditions: male, Kunming, mouse, in vivo, ip; rotarod, mice; 95% confidence interval in brackets
EXPERIMENTAL_READOUT: TD50 at 30 min

Some entries whose results are on file:
CCCCCCOc1ccc(-c2ccnc3ncnn23)cc1
317 mg/kg
NC(=O)N1c2ccccc2C=Cc2ccccc21 [Carbamazepine, reference compound]
44 mg/kg
CCCCCOc1ccc(-c2ccnc3ncnn23)cc1
380 mg/kg

The value of TD50 at 30 min measured for the compound c1ccc(COc2ccc(-c3ccnc4ncnn34)cc2)cc1 turned out to be 366 mg/kg

* * *

tested on: MES-induced seizures; assay: Maximal electroshock seizure (MES) test; assay type: in vivo, mice; settings: TD50 rotarod / ED50 MES, mice i.p.
EXPERIMENTAL_READOUT: PI MES, protective index (TD50/ED50)
Answer with a number only.

Some entries whose results are on file:
c1ccc(COc2ccc(-c3ccnc4ncnn34)cc2)cc1 [Compound 6e]
9.6
NC(=O)N1c2ccccc2C=Cc2ccccc21 [Carbamazepine, reference compound]
4.5

Form field, PI MES, protective index (TD50/ED50) with MES-induced seizures, item CCCCCCOc1ccc(-c2ccnc3ncnn23)cc1 [Compound 6d] : 20.1

Form field, PI MES, protective index (TD50/ED50) with MES-induced seizures, item CCCC(CCC)C(=O)O [Valproate, reference compound] : 1.6

Form field, PI MES, protective index (TD50/ED50) with MES-induced seizures, item CCCCCOc1ccc(-c2ccnc3ncnn23)cc1 [Compound 6c] : 15.0
